TARGET: SMARCA4-HiBiT (Homo sapiens)
Construct: SMARCA4-HiBiT knock-in Hela monoclonal cell (CS3023226); host or cells: HeLa monoclonal knock-in line (CRISPR HiBiT knock-in at the endogenous locus, heterozygous)
Sequence (P51532 whole entry): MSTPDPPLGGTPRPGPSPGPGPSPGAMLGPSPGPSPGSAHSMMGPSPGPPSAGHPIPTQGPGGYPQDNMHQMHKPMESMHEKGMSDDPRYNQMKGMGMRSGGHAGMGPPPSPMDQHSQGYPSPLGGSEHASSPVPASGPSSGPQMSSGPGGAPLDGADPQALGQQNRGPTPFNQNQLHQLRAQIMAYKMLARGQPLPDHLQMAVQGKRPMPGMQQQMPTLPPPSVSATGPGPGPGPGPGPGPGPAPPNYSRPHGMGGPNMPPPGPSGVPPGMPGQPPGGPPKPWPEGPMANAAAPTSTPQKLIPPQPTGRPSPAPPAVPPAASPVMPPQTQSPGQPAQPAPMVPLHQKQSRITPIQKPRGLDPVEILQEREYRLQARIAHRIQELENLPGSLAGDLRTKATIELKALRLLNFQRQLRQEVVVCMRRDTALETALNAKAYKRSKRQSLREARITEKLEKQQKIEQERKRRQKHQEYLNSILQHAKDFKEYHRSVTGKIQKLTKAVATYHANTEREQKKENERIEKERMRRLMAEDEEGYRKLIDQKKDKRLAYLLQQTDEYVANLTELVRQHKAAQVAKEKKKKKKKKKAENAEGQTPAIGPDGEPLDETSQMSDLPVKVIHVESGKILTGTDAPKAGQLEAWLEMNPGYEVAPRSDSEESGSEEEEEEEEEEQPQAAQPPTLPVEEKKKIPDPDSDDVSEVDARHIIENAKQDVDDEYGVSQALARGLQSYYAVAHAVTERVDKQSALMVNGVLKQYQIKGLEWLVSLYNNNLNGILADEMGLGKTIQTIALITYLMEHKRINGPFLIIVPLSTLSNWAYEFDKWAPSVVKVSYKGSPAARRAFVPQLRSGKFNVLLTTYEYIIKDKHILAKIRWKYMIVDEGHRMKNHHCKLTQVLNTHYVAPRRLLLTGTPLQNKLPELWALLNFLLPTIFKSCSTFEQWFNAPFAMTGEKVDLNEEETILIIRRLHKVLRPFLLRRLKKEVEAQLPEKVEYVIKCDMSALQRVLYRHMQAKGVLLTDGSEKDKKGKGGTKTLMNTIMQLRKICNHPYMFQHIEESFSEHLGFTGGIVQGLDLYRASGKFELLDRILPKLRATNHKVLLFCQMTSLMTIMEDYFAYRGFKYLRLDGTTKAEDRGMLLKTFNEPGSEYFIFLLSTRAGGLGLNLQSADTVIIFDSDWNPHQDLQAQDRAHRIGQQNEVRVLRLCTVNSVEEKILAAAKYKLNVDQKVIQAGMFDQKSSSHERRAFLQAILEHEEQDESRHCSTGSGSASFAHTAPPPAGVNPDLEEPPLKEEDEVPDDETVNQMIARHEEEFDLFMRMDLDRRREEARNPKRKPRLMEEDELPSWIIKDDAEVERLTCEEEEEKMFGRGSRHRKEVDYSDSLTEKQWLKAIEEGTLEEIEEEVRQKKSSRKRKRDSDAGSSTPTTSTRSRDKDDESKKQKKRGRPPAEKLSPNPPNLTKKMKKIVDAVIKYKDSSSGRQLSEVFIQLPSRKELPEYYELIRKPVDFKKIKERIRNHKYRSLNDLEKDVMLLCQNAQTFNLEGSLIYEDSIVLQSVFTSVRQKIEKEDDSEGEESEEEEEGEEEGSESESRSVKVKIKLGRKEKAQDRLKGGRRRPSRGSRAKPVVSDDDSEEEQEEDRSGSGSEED
PROTOCOL_TEXT: SMARCA4 HiBiT degradation assay in HeLa cells
Format: cell-based
TEST_CONTEXT: HeLa, 18 hours incubation, read-out: HeLa-HiBit-SM4 Dmax (%)
Some compounds, each annotated with its measured Dmax.

Previously resolved entries follow.
COMPOUND	Dmax
CC(C1CCN(CC2CCN(c3ccc4c(c3)C(=O)N(C3CCC(=O)NC3=O)C4=O)CC2)CC1)N1CCN2c3cc(-c4ccccc4O)nnc3NC[C@H]2C1 (stereo partly shown)	> 85%
O=C1CCC(N2C(=O)c3ccc(N4CCC5(CC4)CC(CN4CCC(CN6CCN7c8cc(-c9ccccc9O)nnc8NC[C@H]7C6)CC4)C5)cc3C2=O)C(=O)N1 (stereo partly shown)	> 85%
O=C1CCC(N2Cc3cc(OCCN4CCC(CN5CCN6c7cc(-c8ccccc8O)nnc7NC[C@H]6C5)CC4)ccc3C2=O)C(=O)N1 (stereo partly shown)	≤ 50%

Given the compound CC1CC(N2CCN3c4cc(-c5ccccc5O)nnc4NC[C@H]3C2)CCN1CCCC1CCN(c2cccc3c2C(=O)N(C2CCC(=O)NC2=O)C3=O)CC1 (stereo partly shown) , what is its reported Dmax? 75 to 85%

Can you look up the measured Dmax of O=C1CCC(N2C(=O)c3ccc(N4CCC(CN5CCCC(CN6CCN7c8cc(-c9ccccc9O)nnc8NC[C@H]7C6)C5)CC4)cc3C2=O)C(=O)N1 (stereo partly shown) for me? 50 to 75%

Name the reported Dmax value associated with the compound CC1CN(c2ccc3c(c2)C(=O)N(C2CCC(=O)NC2=O)C3=O)CCC1CN1CCC(CN2CCN3c4cc(-c5ccccc5O)nnc4NC[C@H]3C2)CC1 (stereo partly shown) > 85%

Name the reported Dmax value associated with the compound C[C@H]1CN2c3cc(-c4ccccc4O)nnc3NC[C@H]2CN1C[C@H]1[C@@H]2CN(CC3CCN(c4ccc5c(c4)C(=O)N(C4CCC(=O)NC4=O)C5=O)C[C@@H]3F)C[C@@H]21 (stereo in doubt) 50 to 75%

Endpoint output: Dmax of O=C1CCC(N2C(=O)c3cccc(N4CCN(CCCN5CCC(N6CCN7c8cc(-c9ccccc9O)nnc8NC[C@H]7C6)CC5)CC4)c3C2=O)C(=O)N1 (stereo partly shown) . Value? > 85%

Recorded Dmax of CC1CN(C(=O)N2CCN3c4cc(-c5ccccc5O)nnc4NC[C@H]3C2)CCN1CC1CCN(c2ccc3c(c2)C(=O)N(C2CCC(=O)NC2=O)C3)CC1 (stereo partly shown) , please. 75 to 85%

Which Dmax value is on record for O=C1CCC(N2Cc3ccc(N4CCC(CN5C[C@@H]6[C@H](C5)[C@H]6CN5CCN6c7cc(-c8ccccc8O)nnc7NC[C@H]6C5)CC4)cc3C2=O)C(=O)N1 (stereo partly shown) ? > 85%

Quick one: Dmax for COC1(CN2C[C@@H]3[C@@H](CN4CCN5c6cc(-c7ccccc7O)nnc6NC[C@H]5C4)[C@@H]3C2)CCN(c2ccc3c(c2)C(=O)N(C2CCC(=O)NC2=O)C3)CC1 (stereo partly shown) ? > 85%

Which Dmax is reported for this compound? CC1CN(CC2CCN(c3ccc4c(c3)C(=O)N(C3CCC(=O)NC3=O)C4)CC2)CC(C)N1C(=O)N1CCN2c3cc(-c4ccccc4O)nnc3NC[C@H]2C1 (stereo partly shown) > 85%

What value of Dmax has been recorded for this entry: O=C1CCC(N2C(=O)c3ccc(N4CCC(CN5C6COCC5CC(CN5CCN7c8cc(-c9ccccc9O)nnc8NC[C@H]7C5)C6)CC4)cc3C2=O)C(=O)N1 (stereo partly shown) 50 to 75%

For the compound shown here, CC1CN(CC2CCN(c3ccc4c(c3)C(=O)N(C3CCC(=O)NC3=O)C4)CC2)CCC1C(=O)N1CCN2c3cc(-c4ccccc4O)nnc3NC[C@H]2C1 (stereo partly shown) , give the reported Dmax. 75 to 85%

Dear colleague, I am looking for the recorded Dmax of the following compound: O=C1CCC(N2C(=O)c3ccc(N4CC(CN5CCC(CN6CCN7c8cc(-c9ccccc9O)nnc8NC[C@H]7C6)CC5)C(F)(F)C4)cc3C2=O)C(=O)N1 (stereo partly shown) 75 to 85%

Dmax for N#CC1(CN2CCN3c4cc(-c5ccccc5O)nnc4NC[C@H]3C2)CCN(CC2CCN(c3ccc4c(c3)C(=O)N(C3CCC(=O)NC3=O)C4=O)CC2)CC1 (stereo partly shown) ? 75 to 85%

Can you look up the measured Dmax of O=C1CCC(N2C(=O)c3ccc(N4CC[C@H](CN5CCC(C(=O)N6CCN7c8cc(-c9ccccc9O)nnc8NC[C@H]7C6)CC5)[C@@H](F)C4)cc3C2=O)C(=O)N1 (stereo partly shown) for me? 75 to 85%

Return reported Dmax; argument: CN(C1CCN(CC2CCN(c3ccc4c(c3)C(=O)N(C3CCC(=O)NC3=O)C4=O)CC2)CC1)C1C[C@@H]2CNc3nnc(-c4ccccc4O)cc3N2C1 (stereo partly shown) > 85%

Need Dmax, item CC(C)(C)C(=O)OCN1C(=O)CCC(N2C(=O)c3ccc(N4CCC(CN5CCC(CN6CCN7c8cc(-c9ccccc9O)nnc8NC[C@H]7C6)CC5)CC4)cc3C2=O)C1=O (stereo partly shown) > 85%

Quick one: Dmax for O=C1CCC(N2Cc3cc(OCCCN4CCC(N5CCN6c7cc(-c8ccccc8O)nnc7NC[C@H]6C5)CC4)ccc3C2=O)C(=O)N1 (stereo partly shown) ? 75 to 85%

# query: Dmax of entry O=C1CCC(N2C(=O)c3ccc(N4CC(CN5C[C@@H]6[C@H](C5)[C@H]6CN5CCN6c7cc(-c8ccccc8O)nnc7NC[C@H]6C5)C4)cc3C2=O)C(=O)N1 (stereo partly shown) > 85%

I am curious: what Dmax value has been reported for O=C1CCC(N2C(=O)c3ccc(N4CCC(CN5C[C@@H]6[C@H](C5)[C@H]6CN5CCN6c7cc(-c8ccccc8O)nnc7NC[C@H]6C5)C(F)(F)C4)cc3C2=O)C(=O)N1 (stereo partly shown) ? 50 to 75%

====

TARGET: SMARCA4 (Homo sapiens)
Construct: endogenous in cells; host or cells: NCI-H520 (given as NCIH520 / NCIH1520 / H520)
Sequence (P51532 whole entry): as above
PROTOCOL_TEXT: SMARCA4 protein degradation in NCIH520 cells by In Cell Western (ICW)
Type: cell-based
TEST_CONTEXT: H520 cells, overnight incubation (maximum 18 hours), highest concentration 1 μM, read-out: DC50 (SM4_H520): SMARCA4 degradation potency
PROPERTY_NAME: DC50

What measured DC50 goes with O=C1CCC(N2Cc3cc(CCN4CCC(CCc5cnc(N6CCN7c8cc(-c9ccccc9O)nnc8NC[C@@H]7C6)nc5)CC4)ccc3C2=O)C(=O)N1 (stereo partly drawn) ? < 100 nM

What measured DC50 goes with O=C1CCC(N2Cc3cc(CCN4CC=C(c5cnc(N6CCN7c8cc(-c9ccccc9O)nnc8NC[C@H]7C6)nc5)CC4)ccc3C2=O)C(=O)N1 (stereo partly drawn) ? < 100 nM

Entry under review: O=C1CCC(N2Cc3cc(CN4CCC(OCCN5CCC(N6CCN7c8cc(-c9ccccc9O)nnc8NC[C@H]7C6)CC5)CC4)ccc3C2=O)C(=O)N1 (stereo partly drawn) . Reported DC50? < 100 nM

====

TARGET: SMARCA2-HiBiT (Homo sapiens, UniProt P51531)
Construct: SMARCA2-HiBiT knock-in Hela monoclonal cell (CS302366); host or cells: HeLa monoclonal knock-in line (CRISPR HiBiT knock-in at the endogenous locus, heterozygous)
Sequence (P51531 whole entry): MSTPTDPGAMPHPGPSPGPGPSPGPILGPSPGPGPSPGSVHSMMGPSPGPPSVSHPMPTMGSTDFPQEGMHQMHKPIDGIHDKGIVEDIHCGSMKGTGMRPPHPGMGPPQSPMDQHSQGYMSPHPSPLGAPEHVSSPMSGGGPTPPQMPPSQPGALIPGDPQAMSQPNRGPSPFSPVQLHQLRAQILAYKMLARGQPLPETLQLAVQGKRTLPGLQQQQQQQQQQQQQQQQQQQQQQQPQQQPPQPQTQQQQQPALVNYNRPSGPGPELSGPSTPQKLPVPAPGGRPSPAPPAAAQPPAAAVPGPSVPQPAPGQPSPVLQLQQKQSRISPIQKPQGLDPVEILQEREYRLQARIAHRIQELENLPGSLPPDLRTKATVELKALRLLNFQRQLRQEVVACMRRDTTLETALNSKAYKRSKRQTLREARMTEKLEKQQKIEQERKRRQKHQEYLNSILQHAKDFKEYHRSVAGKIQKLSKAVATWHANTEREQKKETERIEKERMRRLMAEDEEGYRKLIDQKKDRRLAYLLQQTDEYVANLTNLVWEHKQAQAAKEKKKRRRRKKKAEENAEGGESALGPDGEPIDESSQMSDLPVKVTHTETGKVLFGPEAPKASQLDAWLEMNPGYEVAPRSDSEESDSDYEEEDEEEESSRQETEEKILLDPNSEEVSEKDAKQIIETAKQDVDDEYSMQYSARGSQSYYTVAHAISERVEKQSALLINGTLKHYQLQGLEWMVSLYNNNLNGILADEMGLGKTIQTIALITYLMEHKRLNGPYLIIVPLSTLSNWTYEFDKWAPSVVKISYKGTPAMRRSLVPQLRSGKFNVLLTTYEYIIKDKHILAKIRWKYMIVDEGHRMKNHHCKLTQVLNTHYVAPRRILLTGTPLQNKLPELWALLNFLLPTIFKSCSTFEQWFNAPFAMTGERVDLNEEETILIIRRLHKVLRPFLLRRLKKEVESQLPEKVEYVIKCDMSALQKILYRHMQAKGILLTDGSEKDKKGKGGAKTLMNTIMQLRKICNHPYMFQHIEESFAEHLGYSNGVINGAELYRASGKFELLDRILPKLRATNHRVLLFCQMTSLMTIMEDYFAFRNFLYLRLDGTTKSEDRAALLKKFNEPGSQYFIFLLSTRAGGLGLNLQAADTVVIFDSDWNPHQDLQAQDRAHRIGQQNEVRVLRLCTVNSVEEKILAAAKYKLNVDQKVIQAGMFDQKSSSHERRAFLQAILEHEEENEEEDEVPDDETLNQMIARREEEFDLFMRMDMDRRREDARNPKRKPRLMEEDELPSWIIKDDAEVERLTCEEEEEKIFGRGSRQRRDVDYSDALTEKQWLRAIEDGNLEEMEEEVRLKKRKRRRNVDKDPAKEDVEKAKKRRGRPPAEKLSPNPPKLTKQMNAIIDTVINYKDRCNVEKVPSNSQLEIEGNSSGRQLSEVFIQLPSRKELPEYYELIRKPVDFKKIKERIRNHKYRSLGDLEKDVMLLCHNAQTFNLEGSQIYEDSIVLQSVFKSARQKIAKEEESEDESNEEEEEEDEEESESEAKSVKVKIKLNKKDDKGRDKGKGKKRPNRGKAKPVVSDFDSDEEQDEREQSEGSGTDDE
PROTOCOL_TEXT: SMARCA2 HiBiT degradation assay in HeLa cells
Assay type: cell-based
TEST_CONTEXT: HeLa, 18 hours incubation, read-out: HeLa-HiBit-SM2 Dmax (%)
PROPERTY_NAME: Dmax

MOLECULE	PROPERTY_NAME	REPORTED_VALUE
O=C1CCC(N2C(=O)c3ccc(N4CCO[C@@H](CN5C[C@@H]6[C@H](C5)[C@H]6CN5CCN6c7cc(-c8ccccc8O)nnc7NC[C@H]6C5)C4)cc3C2=O)C(=O)N1 (stereo partly drawn)	Dmax	> 85%

What is its Dmax for SMARCA2-HiBiT (Homo sapiens, UniProt P51531)? Entry: O=C1CCC(N2C(=O)c3ccc(N4CC[C@H](CN5C[C@@H]6[C@H](C5)[C@H]6CN5CCN6c7cc(-c8ccccc8O)nnc7NC[C@H]6C5)[C@H](F)C4)cc3C2=O)C(=O)N1 (stereo partly drawn) 75 to 85%

Lab note: need Dmax with SMARCA2-HiBiT (Homo sapiens, UniProt P51531) for entry O=C1CCC(N2C(=O)c3ccc(C4CCN(CC5CCN(C(=O)N6CCN7c8cc(-c9ccccc9O)nnc8NC[C@H]7C6)CC5)CC4)cc3C2=O)C(=O)N1 (stereo partly drawn) , please look it up. 75 to 85%
